Target: cruzain (Trypanosoma cruzi);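 note: at 5 µM compound concentration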
Assay: biochemical
Details: 10’ (pre-incubation); sheet Screening results
endpoint-label: Cruzain Inhibition 10’

COc1cccn2c(C(=O)N3CCCCC3)c(C(F)(F)F)nc12
9%
Cc1ccc(C(=O)Nc2ccc(S(=O)(=O)O)c3cc(S(=O)(=O)O)cc(S(=O)(=O)O)c23)cc1NC(=O)c1cccc(NC(=O)Nc2cccc(C(=O)Nc3cc(C(=O)Nc4ccc(S(=O)(=O)O)c5cc(S(=O)(=O)O)cc(S(=O)(=O)O)c45)ccc3C)c2)c1
21%
CC1CC1C(=O)NC1CCN(CC2(c3ccccc3)CCCCC2)CC1 (stereo not shown)
-0.5%
CC(=O)NC[C@H]1CN(c2ccc(N3CCSCC3)c(F)c2)C(=O)O1
11%
CS(=O)(=O)c1ccc(C(=O)N(CC2CCCO2)c2nc3ccccc3s2)cc1[N+](=O)[O-] (stereo not shown)
5.7%
Cc1ccc(NC(=O)c2nc[nH]c2C(=O)Nc2nc3ccccc3[nH]2)c(C)c1
-15%

Here's the next entry for you.
Form: molecule = CN(C)c1cc(NC(=O)Nc2ccccc2)c2ccccc2n1 ; Cruzain Inhibition 10’ = 24%

---

Target: TbrCatL (Trypanosoma brucei rhodesiense)
Construct: Conor Caffrey (University of California San Diego)
Test: TbrCatL enzymatic inhibition assay (cleavage of fluorogenic substrate Z-FR-AMC)
Format: biochemical
Details: IC50 (µM ± SEM %) TbrCatL 10′ inc, 10′ pre-incubation
endpoint-label: IC50
Enter the number, and then the unit.

Example cases with answers are listed next.
CN1CCN(CCCOc2ncc(Nc3ncc(-c4ccc(C(F)(F)F)c(F)c4)nc3C(N)=O)cn2)CC1 [MMV687812]
3.6 µM
COc1ccc(C2=NN(C3CCCCCC3)C(=O)C2(C)C)cc1OCCCCOc1ccc(-c2nn[nH]n2)cc1 [MMV690028]
27 µM
N=C(N)Nc1ccc(-c2ccc(-c3ccc(NC(=N)N)cc3Cl)o2)c(Cl)c1 [MMV688179]
5 µM
COc1cc(C2=NCCN2)cc2cc(-c3ccc(C4=NCCN4)cc3)oc12 [MMV688362]
2.3 µM
CN1CCN(S(=O)(=O)c2ccc(-c3ccc4c(Nc5ccc6nn[nH]c6c5)ccnc4c3)cc2)CC1 [MMV687246]
4.2 µM

Here's the next entry for you.
Form: compound = Cn1ccnc1CNCCS(=O)(=O)c1cccc(Nc2ccc(-c3cccc(F)c3)cn2)c1 [MMV688466] ; IC50 = 11 µM

---

Would you mind telling me the reported Cruzain Inhibition 0’ of each entry?
Molecular target: cruzain (Trypanosoma cruzi, UniProt P25779);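 note: at 5 µM compound concentration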
Sequence (P25779 123-337 limits assumed): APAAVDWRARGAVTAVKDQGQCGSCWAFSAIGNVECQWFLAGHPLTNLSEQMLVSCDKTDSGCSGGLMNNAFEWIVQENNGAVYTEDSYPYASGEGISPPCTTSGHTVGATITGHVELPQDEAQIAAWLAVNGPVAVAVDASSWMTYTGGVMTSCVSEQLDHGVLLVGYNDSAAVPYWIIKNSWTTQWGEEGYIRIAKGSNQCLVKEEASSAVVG
Assay: biochemical
Conditions: 0’ (no pre-incubation); sheet Screening results
Give bare numbers, in %.

Example cases with answers are listed next.
O=C(Nc1nc(-c2ccccn2)cs1)C1CC1c1ccccc1F (centres unmarked) [MMV1028806]
24
CCN(CC)S(=O)(=O)c1ccc(Cl)c(C(=O)Nc2ccc3nc(C)sc3c2)c1 [MMV019721]
6.4
FC(F)(F)c1nnc2ccc(Cl)nn12 [MMV069458]
2

Parameters: items (list). Returns: Cruzain Inhibition 0’ for each item.
1. CC(=O)NC[C@@H]1CN(c2ccc(N3CCOCC3)c(F)c2)C(=O)O1 [MMV687803]
2. COC(=O)Nc1nc2ccc(C(=O)c3ccccc3)cc2[nH]1 [MMV003152]
3. CC(C)(C)n1nc(Cc2ccc(F)c(Cl)c2)c2c(N)ncnc21 [MMV688852]

Data returned:
1. -8
2. 3.3
3. 6

Parameters: items (list). Returns: Cruzain Inhibition 0’ for each item.
1. COc1cccc2c(C)nc(N=C(N)N)nc12 [MMV000907]
2. CCc1nn(C)c(C(=O)NCc2ccc(Oc3ccc(C)cc3)cc2)c1Cl [MMV688934]

Data returned:
1: 9.5; 2: 15

Parameters: items (list). Returns: Cruzain Inhibition 0’ for each item.
1. CN(C)c1cc(NC(=O)Nc2ccccc2)c2ccccc2n1 [MMV006901]
2. Cc1ccc(NC(=O)c2nc[nH]c2C(=O)Nc2nc3ccccc3[nH]2)c(C)c1 [MMV011903]
3. Cc1ccc2[nH]c3c(NCCN(C)C)ncnc3c2c1 [MMV006372]
4. O=C(COc1cccc(F)c1)Nc1nc(-c2ccccn2)cs1 [MMV676409]
5. Cc1ccc2cc(C3NC(=O)c4ccccc4N3)c(Cl)nc2c1 (centres unmarked) [MMV019807]
6. CC(=O)NC[C@H]1CN(c2ccc(-c3ccc(CNCc4cn[nH]n4)cc3)c(F)c2)C(=O)O1 [MMV688327]

Data returned:
1. 13
2. -1.2
3. 27
4. -227
5. 8
6. -3.5

Parameters: items (list). Returns: Cruzain Inhibition 0’ for each item.
1. CCCCS(=O)(=O)Nc1ccc2cnn(C)c2c1 [MMV687145]
2. CC(=O)N1CCc2cc3nc(C)cc(C)c3cc21 [MMV054312]
3. COc1ccc(-c2nc(-c3cccc(NC(=O)Cc4ccc(F)cc4)c3)no2)cc1OC [MMV676571]

Data returned:
1. -4.6
2. 10
3. 6

---

Target: TbrCatL (Trypanosoma brucei rhodesiense, UniProt Q95PM0)
Construct: Conor Caffrey (University of California San Diego)
Sequence (Q95PM0 entry or part of it): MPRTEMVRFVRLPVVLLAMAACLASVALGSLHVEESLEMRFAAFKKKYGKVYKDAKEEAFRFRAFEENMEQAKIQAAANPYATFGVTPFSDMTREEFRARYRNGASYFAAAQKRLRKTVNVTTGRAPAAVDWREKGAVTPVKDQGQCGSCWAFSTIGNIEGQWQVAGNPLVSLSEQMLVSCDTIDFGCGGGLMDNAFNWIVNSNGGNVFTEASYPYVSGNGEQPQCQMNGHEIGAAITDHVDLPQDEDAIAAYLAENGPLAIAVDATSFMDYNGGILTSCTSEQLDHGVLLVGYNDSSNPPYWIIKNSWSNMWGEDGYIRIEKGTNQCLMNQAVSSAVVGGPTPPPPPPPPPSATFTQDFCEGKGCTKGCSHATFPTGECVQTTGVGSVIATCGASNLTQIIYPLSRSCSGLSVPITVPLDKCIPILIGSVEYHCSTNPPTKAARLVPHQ
Assay: TbrCatL enzymatic inhibition assay (cleavage of fluorogenic substrate Z-FR-AMC);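 for TbrCatL 10’ Inhibition: at 5 µM compound concentration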
Assay type: biochemical
Conditions: 10’ (pre-incubation time); sheet "Screening results"
endpoint-label: TbrCatL 10’ Inhibition (%)
Numbers only, in %.

Example cases with answers are listed next.
COc1cc(Br)cc2cc(C(=O)Nc3cccc(C(F)(F)F)c3)c(=O)oc12
-2.6
O=C(Nc1ccccc1-c1nc2c(C(=O)O)cccc2o1)c1ccccc1
6
COc1ccc(-c2cnc3ccc(NCc4ccc(S(N)(=O)=O)cc4)nn23)cn1
7
O=C(C1CCN(c2nnnn2-c2ccccc2)CC1)N1CCc2ccccc2C1
6
Nc1ccc(C(=O)Nc2ccc(-c3nc4ccccc4o3)cc2)cc1
-0.7

Parameters: items (list). Returns: TbrCatL 10’ Inhibition for each item.
1. COc1cc(C(F)(F)F)nc2ccc(C)c(N)c12
2. O=C(C1CCN(c2nnc(-n3cccc3)s2)CC1)N1CCC(Cc2ccccc2)CC1

Data returned:
4
-8

Parameters: items (list). Returns: TbrCatL 10’ Inhibition for each item.
1. Cc1cc(C)c2cc(C(=O)NC3CCCCCCC3)[nH]c2c1
2. CCOc1ccccc1C(=O)Nc1cccc(-c2nc3ncccn3c2C)c1

Data returned:
1: -12; 2: -0.3

---

Would you mind telling me the reported Cruzain Inhibition 0’ of each entry?
Molecular target: cruzain (Trypanosoma cruzi, UniProt P25779);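 note: at 5 µM compound concentration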
Assay: biochemical
Settings: 0’ (pre-incubation time); Pathogen Box screening results
Give bare numbers, in %.

Example cases with answers are listed next.
NCCC(O)C(=O)N[C@@H]1C[C@H](N)[C@@H](OC2O[C@H](CN)[C@@H](O)[C@H](O)[C@H]2O)[C@H](O)C1OC1O[C@H](CO)[C@@H](O)[C@H](N)[C@H]1O (stereo partly drawn)
-0.8
Cc1nn(C(=O)Nc2cccc(C(F)(F)F)c2)c(C)c1Sc1ncccn1
2.3
COc1cccc(-c2cc3c(Nc4cccnc4)nccc3[nH]2)c1
8.5
Cc1nc(-c2ccccn2)nc(N(C)CCc2ccccc2)c1Cl
-3
COc1cccc(NC(=O)c2c(NC(=O)c3cccnc3)sc3c2CCC3)c1
-1.4

Parameters: items (list). Returns: Cruzain Inhibition 0’ for each item.
1. Nc1nccc2ccc(Oc3ccncc3)cc12
2. Nc1ccc2ncnc(Nc3ccc(OCc4cccc(F)c4)c(Cl)c3)c2c1
3. O=C(Nc1n[nH]c(=S)s1)c1cc(Br)ccc1Cl
4. c1ccc(-c2nc(NC3CCCCC3)cc(C3CC3)n2)nc1

Data returned:
[-0.8, -11, 10, 9]

---

Biological target: TbrCatL (Trypanosoma brucei rhodesiense, UniProt Q95PM0)
Construct: Conor Caffrey (University of California San Diego)
Assay: TbrCatL enzymatic inhibition assay (cleavage of fluorogenic substrate Z-FR-AMC)
Assay type: biochemical
Conditions: read-out: Inhibition at 5 µM (Mean ± SEM %) TbrCatL 10′ inc
endpoint-label: inhibition at 5 µM

Example cases with answers are listed next.
COc1ccc(C2=NN(C3CCCCCC3)C(=O)C2(C)C)cc1OCCCCOc1ccc(-c2nn[nH]n2)cc1 [MMV690028]
23%
N#Cc1ccc(-c2cnc(N)c(-c3ccc(C(N)=O)cc3)n2)cc1 [MMV085499]
46%
CN1CCN(CCCOc2ncc(Nc3ncc(-c4ccc(C(F)(F)F)c(F)c4)nc3C(N)=O)cn2)CC1 [MMV687812]
5%

Parameters: items (list). Returns: inhibition at 5 µM for each item.
1. COc1ccc(C2=NN(C3CCCCCC3)C(=O)[C@H]3CC=CC[C@@H]23)cc1OCCCCOc1ccc(-c2nn[nH]n2)cc1 [MMV690027]
2. CN1CCN(S(=O)(=O)c2ccc(-c3ccc4c(Nc5ccc6nn[nH]c6c5)ccnc4c3)cc2)CC1 [MMV687246]

Data returned:
1: 0%; 2: 49%

Parameters: items (list). Returns: inhibition at 5 µM for each item.
1. N=C(N)Nc1ccc(-c2ccc(-c3ccc(NC(=N)N)cc3Cl)o2)c(Cl)c1 [MMV688179]
2. Cn1ccnc1CNCCS(=O)(=O)c1cccc(Nc2ccc(-c3cccc(F)c3)cn2)c1 [MMV688466]
3. COc1cc(C2=NCCN2)cc2cc(-c3ccc(C4=NCCN4)cc3)oc12 [MMV688362]
4. N=C(N)Nc1ccc(-c2ccc(-c3ccc(NC(=N)N)c(Cl)c3)o2)cc1Cl [MMV688271]
5. O=C(NCCN1CCCC1)c1cc(NCCCCN2CCC(F)(F)CC2)nc2ccc(Cl)cc12 [MMV667494]

Data returned:
["58%", "54%", "43%", "43%", "73%"]

Parameters: items (list). Returns: inhibition at 5 µM for each item.
1. O=C(NCCN1CCCC1)c1cc(NCCN2CCOCC2)nc2ccc(Cl)cc12 [MMV634140]
2. CCn1cnc2c(Nc3cc(F)cc(F)c3)nc(C#N)nc21 [MMV676881, reference compound]

Data returned:
42%
100%
